- Test system: Staphylococcus aureus
- experiment_notes: Potentiation of oxacillin-mediated antibacterial activity against methicillin-resistant Staphylococcus aureus ATCC 43300 assessed as decrease in oxacillin MIC at 32 ug/ml after 20 to 24 hrs by CLSI method relative to control
- Assay type: functional
Parameter fold change (FC): see the listing below.
Give the value as a plain number.

Input line: Return reported fold change (FC); argument: `CCCCCCCCCCCCCCOCc1cn([C@@H]2O[C@H](CO)[C@H](O)[C@H](O)[C@H]2O)nn1`
Output line: 32

Input line: Return reported fold change (FC); argument: `CCCCCCCCCCCCCCCCOCc1cn([C@@H]2O[C@H](CO)[C@H](O)[C@H](O)[C@H]2O)nn1`
Output line: 16

Input line: Return reported fold change (FC); argument: `CCCCCCCCCCCCOCc1cn([C@@H]2O[C@H](CO)[C@@H](O)[C@H](O)[C@@H]2O)nn1`
Output line: 64

Input line: Return reported fold change (FC); argument: `CCCCCCCCCCCCOCc1cn([C@@H]2O[C@H](CO)[C@@H](O)[C@H](O)[C@H]2O)nn1`
Output line: 128

// next entry
Input line: Return reported fold change (FC); argument: `CCCCCCCCCCCCCCOCc1cn([C@@H]2O[C@H](CO)[C@@H](O)[C@H](O)[C@H]2O)nn1`
Output line: 64

Every entry's value here was drawn from ChEMBL document CHEMBL3608269.
